assay: protein stability index of a GFP-peptide fusion (yeast GPS) (PSI 1-4); higher = more stable; sorted into four equal gates, so the index is relative within each strain; details: ubr1∆
Below, each entry is listed alongside its reported protein stability index.
Measurement Kind: protein stability index

[[record]]
primary_sequence = "RKVREQEELKKRQELEE [MED2]"
measured_value = 2.55

[[record]]
primary_sequence = "GKAATAKETHTKPSETP [YOR098C/NUP1]"
measured_value = 2.37

[[record]]
primary_sequence = "MGAINNNIPSLTSFAEE [SNF6]"
measured_value = 3.35

[[record]]
primary_sequence = "GSVMSASVEIVFHDPDH [SMC3]"
measured_value = 2.55

[[record]]
primary_sequence = "VTKWTNQLTESASHFEQ [YJL041W/NSP1]"
measured_value = 2.83

[[record]]
primary_sequence = "HTTQIVNLEDNTQDLLL [YML103C/NUP188]"
measured_value = 3.07

[[record]]
primary_sequence = "IYRGVLNDENSDDYDNE [SMC1]"
measured_value = 3.42

[[record]]
primary_sequence = "ELLKSSLQKAGSKMEAK [AAR2]"
measured_value = 3.07

[[record]]
primary_sequence = "FIYGEDGMDAAHIEKQS [RPO21]"
measured_value = 3.36

[[record]]
primary_sequence = "FDFLDDGTAQLSNNKTD [YJR042W/NUP85]"
measured_value = 3.39

[[record]]
primary_sequence = "HKQIHTTIFVKSTTPYV [POP7]"
measured_value = 1.82

[[record]]
primary_sequence = "EEDFYTVVGNASFGKNL [DSN1]"
measured_value = 3.12

[[record]]
primary_sequence = "NKKSEQALDISKKGKPT [SRP72]"
measured_value = 3.04

[[record]]
primary_sequence = "DQSISKLQSWDKVSSCF [NNF1]"
measured_value = 1.82

[[record]]
primary_sequence = "IVRDLDRPGSKFHKREV [RPL3]"
measured_value = 3.14

[[record]]
primary_sequence = "SVLHSWVQLVQIIVTDG [YJL039C/NUP192]"
measured_value = 1.54

[[record]]
primary_sequence = "THTEQNNPPKPQKPVPL [SNF2]"
measured_value = 3.15

[[record]]
primary_sequence = "TKEMDEVEEDDEDDDQP [SWI3]"
measured_value = 3.27

[[record]]
primary_sequence = "FDEGTTLLSPKDNGMLI [RPO21]"
measured_value = 1.96

[[record]]
primary_sequence = "TTLKLSPSPILLTSAGC [NUT1]"
measured_value = 1.51

[[record]]
primary_sequence = "MVNSHGIRYIRLKQVFN [NNF1]"
measured_value = 1.81

[[record]]
primary_sequence = "GRRLSMLASQANGGSTI [DSN1]"
measured_value = 2.29

[[record]]
primary_sequence = "DPSGSYFPWKATAIGKG [PRE8]"
measured_value = 3.13

[[record]]
primary_sequence = "STKVENSAIIQNLRKEL [YIL149C/MLP2]"
measured_value = 3.3

[[record]]
primary_sequence = "LSLKRTLTDILEDELYH [RPN4]"
measured_value = 3.15

[[record]]
primary_sequence = "ENPNFWRQFGNRMQISP [GRR1]"
measured_value = 2.76

[[record]]
primary_sequence = "RGSSSLYTLVINDAGKA [RPL38]"
measured_value = 1.12

[[record]]
primary_sequence = "LQSNSKLASTLEKISSS [SMC4]"
measured_value = 2.53

[[record]]
primary_sequence = "RKVENIRTILVNIHHLL [MED7]"
measured_value = 1.32

[[record]]
primary_sequence = "RETLVKTWEKVTLDFGN [SMC2]"
measured_value = 1.27

[[record]]
primary_sequence = "NTPLVGAAFKVISNLVP [YJL039C/NUP192]"
measured_value = 2.47

[[record]]
primary_sequence = "YHSAGGRDKHALSLLYH [SSN3]"
measured_value = 3.32

[[record]]
primary_sequence = "LEQFMERNNIGEICKNY [YDL116W/NUP84]"
measured_value = 2.44

[[record]]
primary_sequence = "TKRQKHFAWLPTHIWNA [POP1]"
measured_value = 1.74

[[record]]
primary_sequence = "QQRGITYLNEVLEKDAA [YGR119C/NUP57]"
measured_value = 3.13

[[record]]
primary_sequence = "KPVMEVTSSFFYRGNYT [FAS1]"
measured_value = 2.1

[[record]]
primary_sequence = "SEPLTLKVLSEHLDCMN [PCI8]"
measured_value = 1.93

[[record]]
primary_sequence = "NEENDLDVDPAKRIRVS [RPB2]"
measured_value = 3.02

[[record]]
primary_sequence = "LHNIWSNGLLSIVLLLL [YML103C/NUP188]"
measured_value = 1.54

[[record]]
primary_sequence = "GKHLSYQRSKRVNNPNV [RPL33A]"
measured_value = 2.78

[[record]]
primary_sequence = "NNNNNNNNNNNNDDNGN [MED2]"
measured_value = 3.23

[[record]]
primary_sequence = "SVKKAGASINSMKANTS [ARP7]"
measured_value = 2.25

[[record]]
primary_sequence = "TSTEKLYKLNDKIAVAV [PRE9]"
measured_value = 2.95

[[record]]
primary_sequence = "AHRNGIKKPKTYKYPSL [RPL29]"
measured_value = 2.95

[[record]]
primary_sequence = "PKARQELPTQLALEIIV [RRP46]"
measured_value = 2.07

[[record]]
primary_sequence = "QQPTASDNIASLQYINI [SMD1]"
measured_value = 3.24

[[record]]
primary_sequence = "ENESTNYQYKIQELRKL [MED7]"
measured_value = 2.69

[[record]]
primary_sequence = "YQCAMGKQAIGAIAYNQ [RET1]"
measured_value = 2.65

[[record]]
primary_sequence = "GETRMKMLNEFVKKTSE [SMC2]"
measured_value = 3.26

[[record]]
primary_sequence = "TAEDSWAVISAFFREKG [RPB2]"
measured_value = 2.94

[[record]]
primary_sequence = "ERVMKNKVEENLEGLYL [RPT2]"
measured_value = 3.35

[[record]]
primary_sequence = "LLQVNKTFCEDPFSDVD [GRR1]"
measured_value = 3.28

[[record]]
primary_sequence = "QSLDTIGGSDAAFEKRY [RPO21]"
measured_value = 3.25

[[record]]
primary_sequence = "KIPAVEYFGGESPVDVQ [FAS1]"
measured_value = 3.09

[[record]]
primary_sequence = "LCVLDYDNIDIQRGRIL [RPB7]"
measured_value = 2.42

[[record]]
primary_sequence = "HSKFRSSSGNTWSLILN [YML031W/NDC1]"
measured_value = 3.12

[[record]]
primary_sequence = "LNDMNTEISGLKNVNKR [SMC3]"
measured_value = 3.12

[[record]]
primary_sequence = "DIGKGAETTFLQDVIAL [RPC53]"
measured_value = 2.71

[[record]]
primary_sequence = "IEYCSAQPSVQSSFAGT [FAS2]"
measured_value = 2.56

